- System: Echinochloa crus-galli (ECHCG)
- assay remarks: Pre-emergence herbicidal activity, glasshouse pot test
- Format: in vivo
- details: Echinochloa crus-galli, 312 h; Rate 250 g/ha; pre-emergence spray; evaluated after 13 days; read-out: Pre-emergence activity ECHCG (100=total damage to plant; 0=no damage to plant)
Assignment: determine reported pest or weed control at 250 g/ha for the given compounds.
A number alone suffices; assume %.

Which pest or weed control at 250 g/ha is listed for CCc1ccc(Oc2ncc(Cl)cc2F)cc1C1=C(O)CC2(CCOCC2)CC1=O [Example A-274] ?
100

Which pest or weed control at 250 g/ha is listed for CCc1ccc(Oc2ccc(Cl)cc2)cc1C1=C(O)[C@@H]2CC[C@](C)(C1=O)C2(C)C (single isomer, unassigned) [Example A-96] ?
90

Which pest or weed control at 250 g/ha is listed for CCc1ccc(Oc2ccc(Br)c(Cl)c2)cc1C1=C(O)[C@@H]2CC[C@](C)(C1=O)C2(C)C [Example A-241] ?
80

Which pest or weed control at 250 g/ha is listed for CCc1ccc(Oc2ncc(Br)cn2)cc1C1=C(O)CC2(CCOCC2)CC1=O [Example A-310] ?
100

Which pest or weed control at 250 g/ha is listed for CCc1ccc(Oc2cnc3cc(F)ccc3n2)cc1C1=C(O)C(C)(C)OC(C)(C)C1=O [Example A-172] ?
100

Which pest or weed control at 250 g/ha is listed for CCCc1cnc(Oc2ccc(CC)c(C3=C(O)C(C)(C)OC(C)(C)C3=O)c2)nc1 [Example A-128] ?
50

Which pest or weed control at 250 g/ha is listed for CCc1ccc(Oc2ccc(Cl)cc2F)cc1C1=C(O)C(C)(C)OC(C)(C)C1=O [Example A-15] ?
100

Which pest or weed control at 250 g/ha is listed for CCc1ccc(Oc2ccc(Cl)cc2)cc1C1=C(O)CC2(CCOCC2)CC1=O [Example A-36] ?
100

Which pest or weed control at 250 g/ha is listed for Cc1ccc(Oc2ccc(Cl)cc2)cc1C1=C(O)C(C)(C)OC(C)(C)C1=O [Example A-1] ?
0

Which pest or weed control at 250 g/ha is listed for CCc1ccc(Oc2ccc(C(F)(F)F)c(C#N)c2)cc1C1=C(O)CC2(CCOCC2)CC1=O [Example A-266] ?
90

Which pest or weed control at 250 g/ha is listed for CCc1ccc(Oc2ccc(F)c(F)c2)cc1C1=C(O)C(C)(C)OC(C)(C)C1=O [Example A-177] ?
60

Which pest or weed control at 250 g/ha is listed for CCc1ccc(Oc2ccc(I)cn2)cc1C1=C(O)C(C)(C)OC(C)(C)C1=O [Example A-163] ?
100

Which pest or weed control at 250 g/ha is listed for CCc1ccc(Oc2nc3ccccc3o2)cc1C1=C(O)C(C)(C)OC(C)(C)C1=O [Example A-118] ?
100

Which pest or weed control at 250 g/ha is listed for CCc1ccc(Oc2ccc(C(F)(F)F)cc2[N+](=O)[O-])cc1C1=C(O)C(C)(C)OC(C)(C)C1=O [Example A-203] ?
50

Which pest or weed control at 250 g/ha is listed for CCc1ccc(Oc2nc(F)c(F)c(C)c2F)cc1C1=C(O)C(C)(C)OC(C)(C)C1=O [Example A-59] ?
100

Which pest or weed control at 250 g/ha is listed for CCc1ccc(Oc2ccc(C(F)(F)F)cc2C#N)cc1C1=C(O)C(C)(C)OC(C)(C)C1=O [Example A-100] ?
100

Which pest or weed control at 250 g/ha is listed for CCc1ccc(Oc2ccc(Cl)c(F)c2)cc1C1=C(O)[C@H]2CC[C@H](C2)C1=O [Example A-249] ?
90

Which pest or weed control at 250 g/ha is listed for CCc1ccc(Oc2ccc3cc(Cl)ccc3n2)cc1C1=C(O)[C@H]2CC[C@H](C2)C1=O [Example A-260] ?
90

Which pest or weed control at 250 g/ha is listed for CCc1ccc(Oc2ccc(C#N)cn2)cc1C1=C(O)C(C)(C)OC(C)(C)C1=O [Example A-150] ?
80

Which pest or weed control at 250 g/ha is listed for CCc1ccc(Oc2ccc(C(F)(F)F)c(Cl)c2)cc1C1=C(O)CC2(CCOCC2)CC1=O [Example A-278] ?
0
